Reference source: the RNAGym collection of RNA variant scans (doi:10.7554/elife.90254)

Measured self-cleavage, listed per entry.
B1: LINE1-full (parent)
chain: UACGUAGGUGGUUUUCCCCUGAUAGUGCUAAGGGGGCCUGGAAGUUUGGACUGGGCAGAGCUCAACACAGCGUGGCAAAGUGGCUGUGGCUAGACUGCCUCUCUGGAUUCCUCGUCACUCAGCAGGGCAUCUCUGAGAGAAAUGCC

Variants of: B1
protocol.details: self-cleavage, relative activity (ratio to wild type); higher = more cleavage; in vitro, sequencing; the parent is a self-cleaving ribozyme
Just the number, please, no unit attached.

Reported self-cleavage of "UACGUAGGUGGUUUUCCCCUGAUAGUGCUAAGGGGGCCUGGAAGUUUGGACCGGGCAGAGCUCAACACAGCGUGGCAAAAUGGCUGUGGCUAGACUGCCUCUCUGGAUUCCUCGUCACUCAGCAGGGCAUCUCUGAGAGAAAUGCC" : 1.82

Record "UACGUAGGUGGUUUUCCCCUGAUAGAGCUAAGGGGGCCUGGAAGUUUGGACUGGGCAGAGCUCAACACAGCGUGGCAAAGUGGCUGUGGCUAGACUGCCUCUCUGGAUUCCUCGUCACUCAGCAGGGCAUCUCUGAAAGAAAUGCC" , field self-cleavage: 1.53

Recorded result, "UACGUAGGUGGUUUUCCCCUGAUAGUGCUAAGGGGGCCUGGAAGUUUGGACUGGGCAGAGCUCAACUCAGCGUGGCAAAGUGGCUGUGGCAAGACUGCCUCUCUGGAUUCCUCGUCACUCAGCAGGGCAUCUCUGAGAGAAAUGCC" , self-cleavage: 0.08

Noted for "UACGUAGGUGGUUUUCCCCUGAUGGUGCUAAGGGGGCCUGGAAGUUUGGACUGGGCAGAGCUCAACACGGCGUGGCAAAGUGGCUGUGGCUAGACUGCCUCUCUGGAUUCCUCGUCACUCAGCAGGGCAUCUCUGAGAGAAAUGCC" : its self-cleavage reads 0.92

Lab note: measured self-cleavage of "UACGUAGGUGGUUUUCCCCUGAUAGUGCUAAGGGGGCCUGGAAGUUUGGACUGGGCAGAGCUCAACACAGCGUGGCAAAGUAGCUGUGGCUGGACUGCCUCUCUGGAUUCCUCGUCACUCAGCAGGGCAUCUCUGAGAGAAAUGCC" was 0.04

Record summary for "UACGUAGGUGGUUUUCCCCUGAUAGUGCUCAGGGGGCCUGGAAGUUUGGACUGGGCAGAGCUCAACACAGCGUGGCAAAGUGGCUGUGGCUAGACUGCCUCUCUGGAUUCCUCGUCACUCAGCAGGGCAUCUCUGAGGGAAAUGCC" : reported self-cleavage = 1.84

// recorded self-cleavage for "UACGUAGGUGGUUUUCCCCUGAUAGUGCUAAAGGGGCCUGGAAGUUUGGACUGGGCAGAGCUCAACACAGCGUGGCAAAGUGGCUGUGGCUAGACUGCCUCUCUGGCUUCCUCGUCACUCAGCAGGGCAUCUCUGAGAGAAAUGCC" : 1.91

The variant "UACGUAGGUGGUUUUCCCCUGAUAGUGCUAAGGGGGCCUGGAAGUUUGGACUGGGCAGAGCUCAACACAGCGUGGCAAAGUGGCUGUAGCUAGACUGCCUCUCUGGAUUCCUCGUCACUCAGCAGGGCAUCUCUGAGAGUAAUGCC" showed self-cleavage equal to 0.07

The measured self-cleavage associated with "UACGUAGGUGGUUUUCCCCUGAUAGUGCUGAGGGGGCCUGGAAGUUCGGACUGGGCAGAGCUCAACACAGCGUGGCAAAGUGGCUGUGGCUAGACUGCCUCUCUGGAUUCCUCGUCACUCAGCAGGGCAUCUCUGAGAGAAAUGCC" reads 1.09

Input "UACGUAGGUGGUUUUCCCCUGAUAGUGCUAAGGGGGCCUGGAAGUUUGGACCGGGCAGAGCUCAACACAGCGUGGCAAAGUGGCUGUGGCUAGACUGCCUCUCUGGAUUCCUCGUCACUCAGCAGGGCAUCUCUGAGAGAAGUGCC" . Output self-cleavage: 1.02

Entry "UACGUAGGUGGUUUUCCCCUGAUAGUGCUAAGGGGGCCUGGAAGUUUGGACUGGGCAGAGCUCAACACAGCGUGGCAAAGUGGCUGUAGCUAGACUGCCUCUCUGGAUUCCUCGUCACUCAACAGGGCAUCUCUGAGAGAAAUGCC" ; self-cleavage = 0.07
